ASSAYED_TARGET: Peroxisome proliferator-activated receptor alpha (Homo sapiens)
Sequence (Q07869 whole entry): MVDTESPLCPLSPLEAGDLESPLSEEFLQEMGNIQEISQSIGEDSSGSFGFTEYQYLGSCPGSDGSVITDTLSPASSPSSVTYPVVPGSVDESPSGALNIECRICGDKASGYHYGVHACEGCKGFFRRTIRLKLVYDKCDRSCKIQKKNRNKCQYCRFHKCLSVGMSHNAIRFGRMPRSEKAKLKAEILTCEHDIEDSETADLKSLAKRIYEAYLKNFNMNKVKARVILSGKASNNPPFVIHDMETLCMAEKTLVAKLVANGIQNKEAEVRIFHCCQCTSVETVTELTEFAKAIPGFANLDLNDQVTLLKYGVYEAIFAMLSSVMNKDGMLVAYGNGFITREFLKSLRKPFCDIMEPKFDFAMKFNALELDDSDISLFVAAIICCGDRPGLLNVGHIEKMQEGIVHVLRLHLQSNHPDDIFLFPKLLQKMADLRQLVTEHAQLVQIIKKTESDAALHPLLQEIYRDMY
TEST_DESCRIPTION: Transactivation of human GAL4-fused PPARalpha LBD expressed in African green monkey COS7 cells co-expressing 5Gal4 pGL3 TK Luc after overnight incubation by luciferase reporter gene assay
MEASURED_ATTRIBUTE: EC50 (nM)

{"columns": ["COMPOUND", "EC50 / nM"],
 "data": [
  ["COc1cccc(S(=O)(=O)n2c(CCCC(=O)O)cc3cc(C(F)(F)F)ccc32)c1", 1160],
  ["O=C(O)CCCc1cc2cc(Cl)ccc2n1S(=O)(=O)c1ccc2ncsc2c1 [LANIFIBRANOR]", 1540]
]}

I: O=C(O)CCCc1cc2cc(C(F)(F)F)ccc2n1S(=O)(=O)c1ccccc1
II: COc1ccc(S(=O)(=O)n2c(CCCC(=O)O)cc3cc(C(F)(F)F)ccc32)cc1
III: O=C(O)CCCc1cc2cc(C(F)(F)F)ccc2n1S(=O)(=O)c1cccc(OC(F)(F)F)c1
Parameters: sort_field (EC50), sort_dir (desc). Return the labels ranked in the requested order, please.
III, I, II

---

ASSAYED_TARGET: Peroxisome proliferator-activated receptor gamma (Homo sapiens)
TEST_DESCRIPTION: Transactivation of human GAL4-fused PPARgamma LBD expressed in African green monkey COS7 cells co-expressing 5Gal4 pGL3 TK Luc after overnight incubation by luciferase reporter gene assay
Assay type: cell-based
pEC50: −log10 of the molar value.
MEASURED_ATTRIBUTE: pEC50

{"columns": ["CHEMICAL_STRING", "ASSAYED_TARGET", "VAL"],
 "data": [
  ["O=C(O)CCc1cc2cc(Cl)ccc2n1S(=O)(=O)c1ccccc1", "Peroxisome proliferator-activated receptor gamma (Homo sapiens)", 5.81],
  ["O=C(O)CCCc1cc2cc(Cl)ccc2n1S(=O)(=O)c1ccc2ncsc2c1", "Peroxisome proliferator-activated receptor gamma (Homo sapiens)", 6.69],
  ["Nc1nc2ccc(S(=O)(=O)n3c(CCCC(=O)O)cc4cc(Cl)ccc43)cc2o1", "Peroxisome proliferator-activated receptor gamma (Homo sapiens)", 6.42]
]}

P: COc1cccc(S(=O)(=O)n2c(CCCC(=O)O)cc3cc(C(F)(F)F)ccc32)c1
Q: CN1CCOc2ccc(S(=O)(=O)n3c(CCCC(=O)O)cc4cc(Cl)ccc43)cc21
Returns the identifier with the smallest measured pEC50 among P and Q . // respond with label for picked entry
P

---

ASSAYED_TARGET: Peroxisome proliferator-activated receptor delta (Homo sapiens) (UniProt Q03181)
Sequence (whole entry): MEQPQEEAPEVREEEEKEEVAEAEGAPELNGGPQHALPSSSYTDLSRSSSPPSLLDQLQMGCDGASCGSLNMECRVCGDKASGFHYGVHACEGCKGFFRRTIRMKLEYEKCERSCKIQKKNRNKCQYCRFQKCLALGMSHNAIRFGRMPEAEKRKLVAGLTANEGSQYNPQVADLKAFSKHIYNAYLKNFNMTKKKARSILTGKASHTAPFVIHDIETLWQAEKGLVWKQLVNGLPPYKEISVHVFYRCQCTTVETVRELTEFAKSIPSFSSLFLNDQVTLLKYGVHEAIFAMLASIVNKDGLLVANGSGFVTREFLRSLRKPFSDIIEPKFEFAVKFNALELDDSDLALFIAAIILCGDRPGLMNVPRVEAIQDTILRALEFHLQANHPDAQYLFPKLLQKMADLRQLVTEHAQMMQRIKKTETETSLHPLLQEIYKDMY
TEST_DESCRIPTION: Transactivation of human GAL4-fused PPARdelta LBD expressed in African green monkey COS7 cells co-expressing 5Gal4 pGL3 TK Luc after overnight incubation by luciferase reporter gene assay relative to GW501516
Format: cell-based
MEASURED_ATTRIBUTE: Emax (%)

Worked cases, answers included:
{"columns": ["CHEMICAL_STRING", "Emax / %"],
 "data": [
  ["Cc1cccc(S(=O)(=O)n2c(CCCC(=O)O)cc3cc(Cl)ccc32)c1", 42],
  ["CN1CCOc2ccc(S(=O)(=O)n3c(CCCC(=O)O)cc4cc(Cl)ccc43)cc21", 54]
]}

A: O=C(O)CCCc1cc2cc(C(F)(F)F)ccc2n1S(=O)(=O)c1ccc(Cl)cc1
B: Nc1nc2ccc(S(=O)(=O)n3c(CCCC(=O)O)cc4cc(Cl)ccc43)cc2o1
Between item A and item B , which reported Emax is smaller? Use the label to indicate which entry you chose.
A

1: Cc1ccc(S(=O)(=O)n2c(CCCC(=O)O)cc3cc(Cl)ccc32)cc1
2: O=C(O)CCCc1cc2cc(Cl)ccc2n1S(=O)(=O)c1ccc2c(c1)OCO2
Hi, I'm comparing 1 with 2 and wondering which one has the bigger number for Emax. Any idea? In your reply, give the label of the chosen option.
2
(2: 43%, 1: 29%)

---

ASSAYED_TARGET: Peroxisome proliferator-activated receptor gamma (Homo sapiens, UniProt P37231)
MEASURED_ATTRIBUTE: pEC50
pEC50 (log units): -log10 of the concentration in mol/L.

Please give measured pEC50 of the following entry: O=C(O)CCCc1cc2cc(Cl)ccc2n1S(=O)(=O)c1ccc2ncsc2c1 [LANIFIBRANOR]
5.49

---

ASSAYED_TARGET: Peroxisome proliferator-activated receptor gamma (Homo sapiens)
Sequence (P37231 whole entry): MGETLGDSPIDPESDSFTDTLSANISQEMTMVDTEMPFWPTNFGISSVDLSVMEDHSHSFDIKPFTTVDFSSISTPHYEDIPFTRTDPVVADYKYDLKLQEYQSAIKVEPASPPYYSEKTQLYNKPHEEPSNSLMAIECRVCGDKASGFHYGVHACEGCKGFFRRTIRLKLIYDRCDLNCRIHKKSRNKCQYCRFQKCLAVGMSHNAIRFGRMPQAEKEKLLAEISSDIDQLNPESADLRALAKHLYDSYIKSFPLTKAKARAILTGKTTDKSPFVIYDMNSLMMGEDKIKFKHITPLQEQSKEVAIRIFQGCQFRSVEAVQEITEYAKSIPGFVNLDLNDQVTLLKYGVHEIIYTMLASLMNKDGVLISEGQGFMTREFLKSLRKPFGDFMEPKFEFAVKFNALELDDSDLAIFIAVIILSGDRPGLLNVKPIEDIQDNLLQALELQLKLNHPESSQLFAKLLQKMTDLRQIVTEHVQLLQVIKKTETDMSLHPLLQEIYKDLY
TEST_DESCRIPTION: Transactivation of recombinant GST-tagged PPARgamma (unknown origin) expressed in Escherichia coli assessed as N-terminal biotin-labeled LCOR (39 to 63 residues) co-activator recruitment by TR-FRET assay
MEASURED_ATTRIBUTE: EC50 (nM)
State just the number; it will be interpreted in nM.

// fetch EC50 for O=C(O)CCCc1cc2cc(Cl)ccc2n1S(=O)(=O)c1ccc2ncsc2c1 ; system: Peroxisome proliferator-activated receptor gamma (Homo sapiens)
727

---

ASSAYED_TARGET: Peroxisome proliferator-activated receptor gamma (Homo sapiens, UniProt P37231)
TEST_DESCRIPTION: Transactivation of human GAL4-fused PPARgamma LBD expressed in African green monkey COS7 cells co-expressing 5Gal4 pGL3 TK Luc after overnight incubation by luciferase reporter gene assay
Assay type: cell-based
pEC50: −log10 of the molar value.
MEASURED_ATTRIBUTE: pEC50

Observe how each entry below is paired with its result.
{"columns": ["CHEMICAL_STRING", "MEASURED_ATTRIBUTE", "VAL"],
 "data": [
  ["COc1ccc(S(=O)(=O)n2c(CCCC(=O)O)cc3cc(C(F)(F)F)ccc32)cc1", "pEC50", 7.09],
  ["O=C(O)CCCc1cc2cc(C(F)(F)F)ccc2n1S(=O)(=O)c1ccc(OC(F)(F)F)cc1", "pEC50", 6.24],
  ["O=C(O)CCCc1cc2cc(C(F)(F)F)ccc2n1S(=O)(=O)c1ccccc1", "pEC50", 6.38]
]}

a: O=C(O)CCCc1cc2cc(Cl)ccc2n1S(=O)(=O)c1ccc2ccccc2c1
b: COc1cccc(S(=O)(=O)n2c(CCCC(=O)O)cc3cc(Cl)ccc32)c1
In terms of reported pEC50, does a or b have the smaller number? # answer = label of selected item
b
